Attribution: patent US12194051B2

# SYSTEM_NAME: UniProt:P29275
# Sequence (P29275 whole entry): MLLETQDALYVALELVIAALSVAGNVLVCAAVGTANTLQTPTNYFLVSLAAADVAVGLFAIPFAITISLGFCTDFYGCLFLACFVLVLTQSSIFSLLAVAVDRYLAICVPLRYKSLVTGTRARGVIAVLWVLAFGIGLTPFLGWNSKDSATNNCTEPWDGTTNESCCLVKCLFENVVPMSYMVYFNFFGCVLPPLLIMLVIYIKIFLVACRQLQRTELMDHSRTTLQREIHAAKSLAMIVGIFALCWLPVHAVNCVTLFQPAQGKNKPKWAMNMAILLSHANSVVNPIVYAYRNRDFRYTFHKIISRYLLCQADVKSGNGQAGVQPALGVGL
# ASSAY_DETAILS: Inhibition of human A2B receptor in recombinant HEK293 cells, cAMP quantification (HTRF)
# MEASUREMENT_CONTEXT: read-out: A2B (Category)
pIC50: −log10 of the molar value.
Assign pIC50 to each entry below.

>>> result("O=C(c1cc2c(cn1)c(Nc1ccc(F)cn1)nn2CC(F)(F)F)N1CCC[C@@H](CO)C1")
"> 7.00"
>>> result("CS(=O)(=O)Cn1nc(Nc2cc(Cl)ccn2)c2cnc(C(=O)N3CCCOCC3)cc21")
"> 7.00"
>>> result("CS(=O)(=O)Cn1nc(Nc2ccc(F)cc2)c2cnc(C(=O)N3CCCOCC3)cc21")
"> 6.00"

Could you tell me pIC50 for each of these compounds? They are listed below.
1. O=C(c1cc2c(cn1)c(Nc1cc(F)ccn1)nn2CC(F)(F)F)N1CCC(O)(C2CC2)CC1
2. O=C(c1cc2c(cn1)c(Nc1ccc(Cl)cn1)nn2CC(F)(F)F)N1CCCOCC1
3. O=C(c1cc2c(cn1)c(Nc1ccc(F)cn1)nn2CC(F)(F)F)N1[C@@H]2CC[C@H]1C[C@@H](O)C2
4. CC1(O)CCN(C(=O)c2cc3c(cn2)c(Nc2cccc(F)c2)nn3CC(F)(F)F)CC1
5. O=C(c1cc2c(cn1)c(Nc1ccc(F)cn1)nn2CC(F)(F)F)N1CCC[C@H](O)C1
6. O=C(c1cc2c(cn1)c(Nc1ccc(F)cn1)nn2CC(F)(F)F)N1CCC[C@@H](O)C1
7. O=C(c1cc2c(cn1)c(Nc1ccncn1)nn2CC(F)(F)F)N1CCC(O)CC1

Result:
> 7.00
> 7.00
> 7.00
> 6.00
> 6.00
> 6.00
> 6.00

Could you tell me pIC50 for each of these compounds? They are listed below.
1. CS(=O)(=O)Cn1nc(Nc2cccc(F)c2)c2cnc(C(=O)N3[C@@H]4CC[C@H]3C[C@@H](O)C4)cc21
2. O=C(c1cc2c(cn1)c(Nc1ccc(F)cn1)nn2CC(F)(F)F)N1CCC(O)CC1
3. O=C(c1cc2c(cn1)c(Nc1ccc(F)cn1)nn2CC(F)(F)F)N1CCC[C@H](CO)C1
4. [2H]C1([2H])COCCN(C(=O)c2cc3c(cn2)c(Nc2ccccn2)nn3CC(F)(F)F)C1
5. O=C(c1cc2c(cn1)c(Nc1ccccn1)nn2CC(F)(F)F)N1CCC(O)CC1
6. [2H]C1([2H])COCCN(C(=O)c2cc3c(cn2)c(Nc2cnccn2)nn3CC(F)(F)F)C1

Result:
["> 7.00", "> 7.00", "> 7.00", "> 7.00", "> 7.00", "> 6.00"]
